- Subject Of Test: Histone deacetylase 2 (Homo sapiens, UniProt Q92769)
- Sequence (Q92769 whole entry): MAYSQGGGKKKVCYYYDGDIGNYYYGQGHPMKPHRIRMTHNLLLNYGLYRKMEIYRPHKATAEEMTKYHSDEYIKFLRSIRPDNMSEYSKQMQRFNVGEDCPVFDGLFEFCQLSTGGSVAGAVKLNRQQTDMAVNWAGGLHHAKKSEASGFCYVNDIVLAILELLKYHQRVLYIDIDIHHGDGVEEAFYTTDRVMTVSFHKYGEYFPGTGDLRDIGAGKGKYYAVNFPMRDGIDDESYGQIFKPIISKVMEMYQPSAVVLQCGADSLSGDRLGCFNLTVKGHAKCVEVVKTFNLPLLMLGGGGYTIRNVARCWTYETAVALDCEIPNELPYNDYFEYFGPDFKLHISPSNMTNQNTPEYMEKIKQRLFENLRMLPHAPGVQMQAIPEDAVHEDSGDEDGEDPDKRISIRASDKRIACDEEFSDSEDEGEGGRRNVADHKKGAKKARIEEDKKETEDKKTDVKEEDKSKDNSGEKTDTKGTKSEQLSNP
- Experiment Summary: Inhibition of full-length recombinant human C-terminal GST tagged HDAC2 expressed in Sf9 insect cells using aminoluciferin peptide substrate at 100 nM preincubated for 3 hrs followed by substrate addition and measured after 30 mins by HDAC-Glo I/II chemiluminescence assay
- Run Parameters: time 3.5 hrs
Assign Satisfied whenever inhibition does not fall below 10%; assign Not satisfied whenever it does.

Reference set (5 entries):
Compound | Subject Of Test | Label Class
Nc1ccc(-c2cccs2)cc1NC(=O)c1cccc(-c2cn(CC(=O)c3ccccc3)nn2)c1 | Histone deacetylase 2 (Homo sapiens, UniProt Q92769) | Not satisfied
Nc1ccc(-c2cccnc2)cc1NC(=O)CCc1cn(Cc2ccc(Oc3ccccc3)cc2)nn1 | Histone deacetylase 2 (Homo sapiens, UniProt Q92769) | Not satisfied
Nc1ccc(-c2ccc(F)cc2)cc1NC(=O)c1cn(CCc2cccc(Cl)c2)nn1 | Histone deacetylase 2 (Homo sapiens, UniProt Q92769) | Not satisfied
Nc1ccc(-c2ccsc2)cc1NC(=O)c1cn(CCc2cccc(C(F)(F)F)c2)nn1 | Histone deacetylase 2 (Homo sapiens, UniProt Q92769) | Not satisfied
Nc1ccc(-c2cccs2)cc1NC(=O)c1ccc(-c2cn(CC(=O)c3ccccc3)nn2)cc1 | Histone deacetylase 2 (Homo sapiens, UniProt Q92769) | Satisfied

QUERY: Could you verify whether the entry `COc1ccc(Cn2cc(-c3ccc(C(=O)Nc4cc(-c5cccs5)ccc4N)s3)nn2)cc1` shows inhibition of no less than 10%?
RESULT: Satisfied

QUERY: Let us now turn to `Cc1cccc(CCn2cc(CCC(=O)Nc3cc(-c4cccnc4)ccc3N)nn2)c1`
RESULT: Satisfied

---

- Subject Of Test: Histone deacetylase 2 (Homo sapiens, UniProt Q92769)
- Experiment Summary: Inhibition of full-length recombinant human C-terminal GST tagged HDAC2 expressed in Sf9 insect cells using aminoluciferin peptide substrate at 100 nM preincubated for 3 hrs followed by substrate addition and measured after 30 mins by HDAC-Glo I/II chemiluminescence assay
- Run Parameters: time 3.5 hrs
Classification field: enter rule met for inhibition values not below 3%, rule not met for values below it.

Record Smiles | Label Class
Nc1ccc(-c2cccs2)cc1NC(=O)c1cn(Cc2ccc(C(=O)O)cc2)nn1 | rule met

QUERY: Please indicate if the recorded inhibition for `Cc1ccc(CCn2cc(C(=O)Nc3cc(-c4ccccc4)ccc3N)nn2)cc1` meets or exceeds 3%.
RESULT: rule not met

---

- Subject Of Test: Histone deacetylase 2 (Homo sapiens)
- Experiment Summary: Inhibition of full-length recombinant human C-terminal GST tagged HDAC2 expressed in Sf9 insect cells using aminoluciferin peptide substrate at 100 nM preincubated for 3 hrs followed by substrate addition and measured after 30 mins by HDAC-Glo I/II chemiluminescence assay
- Run Parameters: time 3.5 hrs
Observed Property: inhibition (%)
Numbers only, in %.

Below are worked cases with known answers.
Record Smiles | Unit Descriptor | inhibition
Nc1ccc(-c2ccsc2)cc1NC(=O)CCc1cn(Cc2nc3ccccc3[nH]2)nn1 | % | 25
Nc1ccc(-c2ccccc2)cc1NC(=O)CCc1cn(CCCCCCC(=O)O)nn1 | % | 0
Nc1ccc(-c2ccccc2)cc1NC(=O)CCc1cn(CCc2ccc(C(F)(F)F)cc2)nn1 | % | 0
Nc1ccc(-c2cccs2)cc1NC(=O)c1ccc(-c2cn(Cc3ccc(C(=O)O)cc3)nn2)cc1 | % | 42
Cc1ccccc1CCn1cc(CCC(=O)Nc2cc(-c3ccccc3)ccc2N)nn1 | % | 4

Parameter requested: inhibition. Apply to each item below.
1. Nc1ccc(-c2cccnc2)cc1NC(=O)CCc1cn(CCc2ccccc2[N+](=O)[O-])nn1
2. Nc1ccc(-c2ccc(F)cc2)cc1NC(=O)c1cn(CCCCCCCC(=O)O)nn1
3. Nc1ccc(-c2ccsc2)cc1NC(=O)CCc1cn(CCCCCCCC(=O)O)nn1
4. Nc1ccc(-c2cccs2)cc1NC(=O)c1cccc(-c2cn(CCc3cccc4ccccc34)nn2)c1

RESULT:
1: 1; 2: 29; 3: 1; 4: 0
